- protocol_notes: NCI Yeast Anticancer Drug Screen. Data for the rad50 strain (AID 155)
- measurement_parameters: S. cerevisiae rad50 strain growth inhibition; at 50.0 µM (retest, dose inferred, filed as 5.0); active compounds read high
- Protocol: Growth inhibition of yeast strains with defined genetic alterations is measured as a screen for potential anti-cancer activity. Selected strains with alterations in DNA damage repair or cell cycle control were exposed to compounds and growth inhibition was measured relative to vehicle treated controls. The strain used in this assay is rad50
About 79,000 compounds went through this panel and 15% of them were active in at least one assay; those are over-represented in the sample as a whole.
# cutoff 80% applies to growth inhibition; >= gives Satisfied, < gives Not satisfied

compound | label_class
COc1ccc(SCc2cc(OC)ccc2OC)cc1 | Not satisfied

Please tell me: is the compound "CNc1nc(C)nc2c1cnn2-c1ccc([N+](=O)[O-])cc1" at or over 80% in terms of growth inhibition?
Not satisfied

Dear colleague, could you confirm whether "O=[N+]([O-])c1cc(S(=O)(=O)Nc2ccccc2)ccc1Cl" has growth inhibition at or above 80%?
Satisfied

Does "N#C/C(=C/N1C(=O)/C(=C/c2ccc([N+](=O)[O-])cc2)SC1=S)c1nc2ccccc2s1" have a reported growth inhibition of at least 80%?
Not satisfied

Could you tell me if the measured growth inhibition of CC(=O)C1(O)Cc2c(O)c3c(c(O)c2C(OC2CC(N)C(O)C(C)O2)C1)C(=O)c1ccccc1C3=O (stereo not given) reaches 80% or more?
Satisfied
